TEST TARGET: P-gp (human MDR1) (Homo sapiens, UniProt P08183)
Construct: host or cells: LLC-PK1 (porcine kidney epithelial cells)
Sequence (P08183 whole entry): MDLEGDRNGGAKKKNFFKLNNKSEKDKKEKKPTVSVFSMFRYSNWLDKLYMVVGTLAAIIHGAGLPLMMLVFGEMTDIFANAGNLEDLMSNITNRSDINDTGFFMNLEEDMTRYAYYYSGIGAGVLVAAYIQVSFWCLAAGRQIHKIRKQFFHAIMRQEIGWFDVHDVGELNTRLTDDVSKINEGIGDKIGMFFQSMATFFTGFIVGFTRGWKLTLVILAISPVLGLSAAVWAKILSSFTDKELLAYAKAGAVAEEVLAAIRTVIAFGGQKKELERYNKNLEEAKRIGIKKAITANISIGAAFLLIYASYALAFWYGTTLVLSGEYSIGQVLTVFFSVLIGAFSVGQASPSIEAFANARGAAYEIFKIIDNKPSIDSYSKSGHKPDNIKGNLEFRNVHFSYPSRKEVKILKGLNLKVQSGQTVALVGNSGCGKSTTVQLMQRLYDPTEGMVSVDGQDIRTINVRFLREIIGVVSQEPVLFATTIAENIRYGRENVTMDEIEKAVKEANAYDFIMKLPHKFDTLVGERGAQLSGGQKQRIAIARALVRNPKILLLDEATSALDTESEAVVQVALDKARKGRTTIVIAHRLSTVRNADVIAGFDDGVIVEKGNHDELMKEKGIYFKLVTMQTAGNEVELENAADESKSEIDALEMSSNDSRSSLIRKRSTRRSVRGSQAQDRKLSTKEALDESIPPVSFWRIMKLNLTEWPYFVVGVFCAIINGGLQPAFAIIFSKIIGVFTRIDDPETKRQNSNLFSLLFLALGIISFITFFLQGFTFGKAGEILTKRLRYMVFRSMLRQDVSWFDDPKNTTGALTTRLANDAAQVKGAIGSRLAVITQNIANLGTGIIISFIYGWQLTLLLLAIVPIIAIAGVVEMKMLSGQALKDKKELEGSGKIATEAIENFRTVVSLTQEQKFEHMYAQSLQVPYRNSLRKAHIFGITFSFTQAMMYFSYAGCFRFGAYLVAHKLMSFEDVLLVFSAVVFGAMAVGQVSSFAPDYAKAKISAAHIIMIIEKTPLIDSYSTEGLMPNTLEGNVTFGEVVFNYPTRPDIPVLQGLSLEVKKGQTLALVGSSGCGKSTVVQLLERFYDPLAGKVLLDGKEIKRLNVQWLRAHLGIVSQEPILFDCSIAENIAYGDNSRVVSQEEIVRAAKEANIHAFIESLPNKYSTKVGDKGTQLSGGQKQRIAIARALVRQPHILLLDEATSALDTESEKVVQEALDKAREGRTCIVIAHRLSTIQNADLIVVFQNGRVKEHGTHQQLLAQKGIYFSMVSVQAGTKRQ
PROCEDURE TEXT: P-gp (P-Glycoprotein) bidirectional transcellular transport assay, LLC-PK1 and L-MDR1 cells
Type: in vitro ADME
ASSAY CONDITIONS: LLC-PK1 cells expressing human MDR1, PappBA/PappAB
MEASURED ENDPOINT: efflux ratio at 2 h

1) CC#CCOc1cnc(C(=O)Nc2ccc(F)c([C@]3(C)C[C@@H](C(F)(F)F)OC(N)=N3)c2)cn1	2.63
2) C[C@@]1(c2cc(NC(=O)c3ccc(Cl)cn3)ccc2F)C[C@@H](C(F)(F)F)OC(N)=N1	1.82
3) NC1=N[C@](CF)(c2cc(NC(=O)c3ccc(OCF)cn3)ccc2F)C[C@@H](C(F)(F)F)O1	1.5
4) C[C@@]1(c2cc(NC(=O)c3ccc(OCF)cn3)ccc2F)C[C@@H](C(F)(F)F)OC(N)=N1	2.3

* * *

TEST TARGET: CYP2D6 (Homo sapiens)
Sequence (P10635 whole entry): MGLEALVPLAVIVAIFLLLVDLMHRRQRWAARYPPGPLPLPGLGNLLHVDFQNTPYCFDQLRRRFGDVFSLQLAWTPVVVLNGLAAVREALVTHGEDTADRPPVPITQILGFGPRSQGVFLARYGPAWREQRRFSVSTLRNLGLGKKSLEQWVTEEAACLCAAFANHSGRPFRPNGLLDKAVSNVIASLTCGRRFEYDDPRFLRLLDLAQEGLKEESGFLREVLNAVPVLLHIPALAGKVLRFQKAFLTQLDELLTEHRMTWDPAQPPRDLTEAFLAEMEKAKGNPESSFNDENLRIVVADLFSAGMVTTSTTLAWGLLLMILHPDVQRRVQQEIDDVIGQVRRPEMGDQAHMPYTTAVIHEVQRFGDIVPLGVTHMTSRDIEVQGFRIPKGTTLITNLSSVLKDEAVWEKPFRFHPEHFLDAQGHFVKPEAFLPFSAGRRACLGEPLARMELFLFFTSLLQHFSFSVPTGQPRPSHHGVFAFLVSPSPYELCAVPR
Catalogue of compounds with associated IC50
MEASURED ENDPOINT: IC50 (µM)

1. C[C@@]1(c2cc(NC(=O)c3ccc(OCF)cn3)ccc2F)C[C@@H](C(F)(F)F)OC(N)=N1	1.6
2. COc1cnc(C(=O)Nc2ccc(F)c([C@]3(CF)C[C@@H](C(F)(F)F)OC(N)=N3)c2)cn1	16
3. CC#CCOc1cnc(C(=O)Nc2ccc(F)c([C@]3(C)C[C@@H](C(F)(F)F)OC(N)=N3)c2)cn1	13
